Collected HA200 (hemolytic activity at 200 μM) values appear next to each entry.
System: sheep RBC
Assay procedure: Hemolytic activity, red blood cell leakage assay
Assay context: 24 h, 37°C
Could you give me the number in %? Just the number is fine.

Sample records with HA200 (hemolytic activity at 200 μM):
Compound	HA200 (hemolytic activity at 200 μM) [%]
CCCCCCCCCCCCCCCCOP(=O)(OCC[N+](C)(C)C)OCOC(=O)CCCCCCCCCCC.[Cl-] (stereo not drawn) [ME12]	103.2
CCCCCCCCCCCCCCCCOP(=O)(OCCCCCCCCCCCC)OCC[N+](C)(C)C (stereo not drawn) [Compound M12]	63.9
CCCCCCCCCCCCCCCCCCOP(=O)(OC1CC[N+](C)(C)CC1)OC(C)OC(=O)CCCCCCCCCCC.[Cl-] (stereo not drawn) [P E^′12]	80.1
CCCCCCCCCCCCCCCCCCOP(=O)(OCOC(=O)CCCCCCCCCCC)OC1CC[N+](C)(C)CC1.[Cl-] (stereo not drawn) [PE12]	20.6
CCCCCCCCCCCCCCCCCCOP(=O)(OCCCCCCCCCCCC)OC1CC[N+](C)(C)CC1.[Cl-] (stereo not drawn) [Compound P12]	35.7

Pending compound:
Quick one: HA200 (hemolytic activity at 200 μM) for CCCCCCCCCCCCCCCCOP(=O)(OCC[N+](C)(C)C)OC(C)OC(=O)CCCCCCCCCCC.[Cl-] (stereo not drawn) [M E^′12] ? 101.7
